# Tested on: P12-Ichikawa
# method: cell viability relative to DMSO control; higher = less cytotoxic
# appliedConditions: RPMI 5 mM glucose + 10% dialyzed FBS; 48 h; 0.19 µM
endpoint: cell viability

Name the recorded cell viability for CN1CCN2c3ncccc3Cc3ccccc3C2C1 (configuration not stated) .
118%

Next molecule: `C=CCc1cccc(/C=N/NC(=O)CN2CCN(Cc3ccccc3)CC2)c1O`
101%

Next molecule: CC1=C(CC(=O)O)c2cc(F)ccc2/C1=C\c1ccc([S+](C)[O-])cc1 (configuration not stated)
122%

Next molecule: COC(=O)C1C2CC3c4[nH]c5cc(OC)ccc5c4CCN3CC2CC(OC(=O)c2cc(OC)c(OC)c(OC)c2)C1OC (configuration not stated)
113%

Next molecule: `O=C(O)/C=C/c1ccc(O)c(O)c1`
110%

Next molecule: `O=C(Oc1ccc([N+](=O)[O-])cc1)N1CCC(C(O)(c2ccc3c(c2)OCO3)c2ccc3c(c2)OCO3)CC1`
90.3%

Next molecule: `ClC1=CC\2=C(OC3=C(C=CC=C3)\N=C2N4CCNCC4)C=C1`
99.7%

Next molecule: `CN1C(=O)C[C@H](C(=O)N[C@@H](Cc2cnc[nH]2)C(=O)N2CCC[C@H]2C(N)=O)NC1=O`
123%

Next molecule: `CN[C@@H]1Cc2cccc3[nH]c(=O)n(c23)C1`
123%

Next molecule: `c1ccc(CNc2nc(N3CCOc4ccccc43)nc3c2CCCC3)cc1`
105%

Next molecule: `COc1cc([C@H]2Oc3cc([C@H]4Oc5cc(O)cc(O)c5C(=O)[C@@H]4O)ccc3O[C@@H]2CO)ccc1O`
106%

Next molecule: `O=C\1N(N\C=C1[N]2C=CN=N2)C3=NC=NC(=C3)N4CCOCC4`
47.2%

Next molecule: `CC1(C)CNc2cc(NC(=O)c3cccnc3NCc3ccncc3)ccc21`
120%

Next molecule: `COc1ccc([C@@H]2CC(=O)c3c(O)cc(O[C@@H]4O[C@H](CO[C@@H]5O[C@@H](C)[C@H](O)[C@@H](O)[C@H]5O)[C@@H](O)[C@H](O)[C@H]4O)cc3O2)cc1O`
111%

Next molecule: `C[C@]12CC[C@@H]3c4ccc(O)cc4CC[C@H]3[C@@H]1C[C@@H](O)[C@@H]2O`
117%

Next molecule: CN1c2ccccc2C(=O)N2CCc3c([nH]c4ccccc34)C21 (configuration not stated)
116%

Next molecule: CC/1=C(/C(CC(=O)N1)C2=CC=C(C=C2)C(F)(F)F)C(=O)NC3=C(F)C=C4[NH]N=CC4=C3 (configuration not stated)
105%

Next molecule: `Oc1cccc(-c2nc(N3CCOCC3)c3oc4ncccc4c3n2)c1`
110%

Next molecule: `NC(=O)c1cccc2nc(-c3ccc([C@H]4CCCN4)cc3F)[nH]c12`
119%

Next molecule: `COC/1=C/C=C2\C(=C/C1=O)[C@H](CCC3=CC(=C(OC)C(=C23)OC)OC)NC(C)=O`
8.83%

Next molecule: `CN(C)CC[C@H](c1ccc(Cl)cc1)c1ccccn1`
80.9%

Next molecule: `CC1(N2CCC(n3c([C@@H]4CCCNC4)nc4ccccc43)CC2)CCCCCCC1`
107%

Next molecule: C=CC(=O)Nc1cccc(Nc2nc(NC3CCC(N(C)C)CC3)nc3c2ncn3C(C)C)c1 (configuration not stated)
119%

Next molecule: `Nc1nc(N)c2nc(-c3cccc(O)c3)c(-c3cccc(O)c3)nc2n1`
114%

Next molecule: `CC[C@]12\C=C/CN3CC[C@]4([C@@H](N(C)C5=CC(=C(C=C45)[C@]6(C[C@H]7C[C@H](CN(C7)CC8=C6[NH]C9=C8C=CC=C9)C(C)(F)F)C(=O)OC)OC)[C@](O)([C@@H]1OC(C)=O)C(=O)OC)[C@H]23`
27.1%

Next molecule: `COc1cccc([C@@H](C)NCCCc2ccccc2Cl)c1`
90.7%

Next molecule: `Cc1ccc([S+](=O)([O-])Nc2nc3ccccc3nc2Nc2ccc3nsnc3c2)cc1`
104%

----------
# System: NOMO1
# method: cell viability relative to DMSO control; higher = less cytotoxic
# appliedConditions: HPLM + 10% dialyzed FBS; 48 h; 5.12 µM
Give measured cell viability for each item. Keep answers brief.
# number only, unit % dropped from output

Name the recorded cell viability for `Cn1c(=O)n(-c2ccc(C(C)(C)C#N)cc2)c2c3cc(-c4cnc5ccccc5c4)ccc3ncc21` .
41.9

Next compound: `CC[C@@]1(O)C(=O)OC\C2=C1\C=C\3N(CC4=C3N=C5C=CC=CC5=C4)C2=O`
21.1

Next compound: `CN1\C(=C(\O)C2=C(C=CC=C2)[S+]1([O-])=O)C(=O)NC3=CC=CC=N3`
102

Next compound: `CC[C@H](NC(=O)[C@H](C)NC)C(=O)N1C[C@@H](O)C[C@H]1Cc1c(-c2[nH]c3cc(F)ccc3c2C[C@@H]2C[C@H](O)CN2C(=O)[C@H](CC)NC(=O)[C@H](C)NC)[nH]c2cc(F)ccc12`
22.6

Next compound: `CC[C@]12\C=C/CN3CC[C@]4([C@@H](N(C)C5=CC(=C(C=C45)[C@]6(C[C@H]7C[C@H](CN(C7)CC8=C6[NH]C9=C8C=CC=C9)C(C)(F)F)C(=O)OC)OC)[C@](O)([C@@H]1OC(C)=O)C(=O)OC)[C@H]23`
36.8

Next compound: `N[S+](=O)([O-])c1cccc2c1C(=O)c1cccc(O)c1C2=O`
91.6

Next compound: `Nc1ncnc2ccccc12`
88.4

Next compound: `CNC[C@H](O)c1cccc(O)c1`
99

Next compound: `CCC(=C/[C@H](C)C/C=C/C(C)=C/[C@@H](C)C(=O)[C@@H](C)[C@H](O)[C@@H](C)C/C(C)=C/C(=O)O)/C=C/[C@@H]1OC(=O)C=C[C@@H]1C`
4.07

Next compound: `Cn1cc(/C=C2\C(=O)Nc3cccnc32)c2ccccc21`
126

Next compound: `Cc1cc(C(=O)N2CCN(c3cccc(Cl)c3)CC2)n(-c2ccccc2)n1`
30.7

Next compound: CC(O)(C#Cc1ccc2c(c1)N(c1nc(N)ncc1Cl)CC2)c1nccs1 (centres undefined)
152

Next compound: `O=C(c1ccc(F)c(F)c1Nc1ccc(I)cc1F)N1CC(O)([C@@H]2CCCCN2)C1`
15.1

Next compound: OC(=O)C(CC/1=C/C(=O)NC2=CC=CC=C12)NC(=O)C3=CC=C(Cl)C=C3 (centres undefined)
131

----------
# Test system: SEM cells
# method: cell viability relative to DMSO control; higher = less cytotoxic
# appliedConditions: HPLM + 10% dialyzed FBS; 48 h; 15.4 µM
endpoint: cell viability (%)
# number only, unit % dropped from output

Name the recorded cell viability for `Cc1cc(C(=O)N2CCN(c3cccc(Cl)c3)CC2)n(-c2ccccc2)n1` .
21.7

Next compound: `CC(C)c1ccc(Cn2ccc3c4c(N)nc(NC5CC5)nc4ccc32)cc1`
31.9

Next compound: `COC/1=C/C=C2\C(=C/C1=O)[C@H](CCC3=CC(=C(OC)C(=C23)OC)OC)NC(C)=O`
10

Next compound: COC(=O)C1C2CC3c4[nH]c5cc(OC)ccc5c4CCN3CC2CC(OC(=O)c2cc(OC)c(OC)c(OC)c2)C1OC (stereo not given)
117

Next compound: `C[C@]12CC[C@H]3[C@@H](CCC/4=C/C(=O)CC[C@]34C)[C@@H]1CC[C@@H]2O`
125

----------
# Test system: P12-Ichikawa
# method: AUC of viability dose-response curve (% viability x log10 dose units); higher = less sensitive
# appliedConditions: RPMI 5 mM glucose + 10% FBS; 48 h
Give measured AUC of viability dose-response curve for each item. Keep answers brief.

Name the recorded AUC of viability dose-response curve for `Cc1cnc(C(=O)O)c[n+]1[O-]` .
468

Next compound: `CC[C@@]1(O)C(=O)OC\C2=C1\C=C\3N(CC4=C3N=C5C=CC=CC5=C4)C2=O`
164

Next compound: CC/1=C(/C(CC(=O)N1)C2=CC=C(C=C2)C(F)(F)F)C(=O)NC3=C(F)C=C4[NH]N=CC4=C3 (centres undefined)
450

Next compound: `CCO[C@@H]1OC(=O)C[C@@H]1NC(=O)[C@@H]1CCCN1C(=O)[C@@H](NC(=O)c1ccc(N)c(Cl)c1)C(C)(C)C`
356

Next compound: `Cc1cncc2cccc([S+](=O)([O-])N3CCCN(C(=O)CN)C[C@@H]3C)c12`
401

Next compound: `Oc1cccc(-c2nc(N3CCOCC3)c3oc4ncccc4c3n2)c1`
401

Next compound: CN1c2ccccc2C(=O)N2CCc3c([nH]c4ccccc34)C21 (centres undefined)
454

Next compound: `C[C@@H](NC(=O)c1ncnc(N)c1Cl)c1ncc(C(=O)Nc2cc(C(F)(F)F)c(Cl)cn2)s1`
449

Next compound: `c1ccc(CNc2nc(N3CCOc4ccccc43)nc3c2CCCC3)cc1`
476
